Measured values drawn from paper PMC9620171 for this set.

testDetails: Pharmacokinetics after oral administration, rat
measurementSetup: in vivo, 1 mg/kg, elimination half-life in rodents

{"smilesRepresentation": "Cc1nc(N(C)C(=O)Cc2ccc(-c3ccccn3)cc2)sc1S(N)(=O)=O", "half-life": "≥ 5 h"}

---

testDetails: Pharmacokinetics after oral administration, human
measurementSetup: in vivo, 100 mg

{"compound": "Cc1nc(N(C)C(=O)Cc2ccc(-c3ccccn3)cc2)sc1S(N)(=O)=O [Compound 16, pritelivir]", "half-life": "60 to 70 h"}

---

testDetails: Pharmacokinetics after oral administration, dog
measurementSetup: in vivo, 1 mg/kg

{"smilesRepresentation": "Cc1nc(N(C)C(=O)Cc2ccc(-c3ccccn3)cc2)sc1S(N)(=O)=O", "half-life": "≥ 22 h"}
